Data credit: patent US20180030151A1

Target: recombinant human TFPI (tissue factor pathway inhibitor) (human, UniProt P10646 29-304)
Assay: cell-based or functional assay
Provide the reported FXa assay % of FXa alone, 5 nM Ab, 10 nM TFPI of each item.
# number only, unit % dropped from output

Give the measured FXa assay % of FXa alone, 5 nM Ab, 10 nM TFPI for clone 1224 (antibody, V domains shown) VH: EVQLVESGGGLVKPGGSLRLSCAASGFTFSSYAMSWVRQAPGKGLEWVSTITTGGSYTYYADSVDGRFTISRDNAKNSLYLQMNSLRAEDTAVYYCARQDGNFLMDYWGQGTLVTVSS VL: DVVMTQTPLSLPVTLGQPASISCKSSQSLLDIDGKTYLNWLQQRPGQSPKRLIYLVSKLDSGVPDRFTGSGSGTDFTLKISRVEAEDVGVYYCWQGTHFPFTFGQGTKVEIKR
6.9

Give the measured FXa assay % of FXa alone, 5 nM Ab, 10 nM TFPI for clone 4287 (antibody, V domains shown) VH: EVQLVESGGGLVKPGGSLRLSCAASGFTFSKYAMNWFRQAPGKGLEWVSTITTGGSYTYYADSVEGRFTISRDNAKNSLYLQMNSLRAEDTAVYYCARQHPYGNFLMDYWGQGTLVTVSS VL: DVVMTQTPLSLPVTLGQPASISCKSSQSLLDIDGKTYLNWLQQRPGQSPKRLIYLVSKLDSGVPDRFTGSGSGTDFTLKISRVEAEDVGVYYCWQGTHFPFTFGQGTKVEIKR
3.5

Give the measured FXa assay % of FXa alone, 5 nM Ab, 10 nM TFPI for clone 1234 (antibody, V domains shown) VH: EVQLVESGGGLVKPGGSLRLSCAASGFTFSSYAMNWVRQAPGKGLEWVSTITTGGSYTYYADSVQGRFTISRDNAKNSLYLQMNSLRAEDTAVYYCARQDGNFLMDYWGQGTLVTVSS VL: DVVMTQTPLSLPVTLGQPASISCKSSQSLLDIDGKTYLNWLQQRPGQSPKRLIYLVSKLDSGVPDRFTGSGSGTDFTLEISRVEAEDVGVYYCWQGTHFPFTFGQGTKVEIKR
3.6
